We begin with a simple list: items and their reported melting point.

Examples with answers:
>  <molecule>
COC(=O)c1ccc(-c2nnc(CSCCCCOc3ccccc3)o2)cc1

>  <melting point>
98 to 105 °C

$$$$
>  <molecule>
CCCCCCCCC(=O)NCc1ccc(C#N)cc1

>  <melting point>
185 to 187 °C

$$$$
>  <molecule>
Nc1nnc2c3c(c(N4CCCC4)nn12)CCCC3

>  <melting point>
243 to 244 °C

$$$$
>  <molecule>
COc1ccc(-c2[nH]nc3c2C(=O)c2c(NC(=O)NCc4ccc(N)cc4)cccc2-3)cc1

>  <melting point>
> 300 °C

$$$$
>  <molecule>
O=C(O)CCOc1cccc2c1CCc1sc(SCC(c3ccccc3)c3ccccc3)nc1-2

>  <melting point>
123 to 125 °C

$$$$
>  <molecule>
C[C@@H](CCOC(N)=O)CN1CCC(c2noc3cc(F)ccc23)CC1

>  <melting point>
72 to 74 °C

$$$$
>  <molecule>
COC(=O)C1=C(N)OC(C)=C(C(C)=O)C1c1cccc([N+](=O)[O-])c1 (stereo not given)

>  <melting point>
160 to 163 °C

$$$$
>  <molecule>
O=C1c2ccc([N+](=O)[O-])cc2C(=O)N1CCc1ccccc1

>  <melting point>
142 to 143 °C

$$$$
>  <molecule>
N#CC1(Nc2ccccc2)CCN([C@H]2CCc3ccccc32)CC1

>  <melting point>
157 to 160 °C

$$$$
>  <molecule>
COC(=O)C(C(=O)N1CCOCC1)C(c1ccccc1)c1cc2cc(Br)ccc2nc1OC (stereo not given)

>  <melting point>
206 to 208 °C

$$$$

Request the reported melting point associated with Cc1c(C(=O)N(C)N2CC=CCC2)nn(-c2ccc(Cl)cc2Cl)c1-c1ccc(Cl)cc1
138 °C

Request the reported melting point associated with N#CN=C(N)NCc1ccc2c(c1)Nc1nccnc1S2
246 to 248 °C

Request the reported melting point associated with CCCCc1ncc(CNC(Cc2ccccc2)C(=O)O)n1Cc1ccccc1Cl (stereo not given)
141 to 143 °C

Request the reported melting point associated with CCCCN(C=NC1=C(C(=O)OCC)C(c2ccccc2Cl)C(C(=O)OCC)=C(C)N1)CCCC (stereo not given)
126 °C

Request the reported melting point associated with C=C(c1ccccc1)C(O)C(NC=O)C(=O)OC (stereo not given)
173 to 174 °C

Request the reported melting point associated with COc1cccc(Cn2cnc3c(Br)c(NC4=NCCN4)ccc32)c1
177 to 178 °C
